target: human norepinephrine transporter (Homo sapiens, UniProt P23975); construct: expressed in transfected cells; experiment: Norepinephrine uptake (fluorescent substrate, HEK293F cells); type: cell-based; settings: HEK293F cells with human NET, Cheng-Prusoff from IC50; one average result; read-out: NET inhibition Ki
Sequence (P23975 whole entry): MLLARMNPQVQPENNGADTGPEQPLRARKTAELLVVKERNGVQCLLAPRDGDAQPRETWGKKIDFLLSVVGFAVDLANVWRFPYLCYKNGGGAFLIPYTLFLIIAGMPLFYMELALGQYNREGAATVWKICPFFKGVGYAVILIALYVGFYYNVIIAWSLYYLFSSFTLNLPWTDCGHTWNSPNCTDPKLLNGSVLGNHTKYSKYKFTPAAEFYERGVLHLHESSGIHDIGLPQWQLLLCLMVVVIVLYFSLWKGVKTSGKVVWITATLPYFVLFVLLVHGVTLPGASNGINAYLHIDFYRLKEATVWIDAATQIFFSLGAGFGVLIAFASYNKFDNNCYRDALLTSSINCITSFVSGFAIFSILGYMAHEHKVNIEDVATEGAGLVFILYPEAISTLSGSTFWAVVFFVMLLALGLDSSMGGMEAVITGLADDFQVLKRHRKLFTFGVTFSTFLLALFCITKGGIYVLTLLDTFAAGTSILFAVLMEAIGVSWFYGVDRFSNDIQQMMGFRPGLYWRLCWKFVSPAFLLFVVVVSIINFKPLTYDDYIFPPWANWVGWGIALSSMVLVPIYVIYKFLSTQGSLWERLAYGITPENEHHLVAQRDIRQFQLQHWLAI
READOUT: Ki

Query :: # return recorded Ki for input Fc1ccc2c(c1)C(N1CCNCC1)=Nc1ccccc1S2 [Example 1]
Result :: ~10 nM

----------
Property: IC50; scope: individual compounds
target: dopamine D2s receptor (Homo sapiens, UniProt P14416); construct: expressed in transfected cells; membranes used; experiment: D2 receptor in vitro functional GTPγS assay (block of dopamine-stimulated [35S]-GTPγS binding); type: biochemical; settings: antagonist mode; read-out: D2 Ant GTPγS IC50
Sequence (P14416 1-414 isoform P14416-2): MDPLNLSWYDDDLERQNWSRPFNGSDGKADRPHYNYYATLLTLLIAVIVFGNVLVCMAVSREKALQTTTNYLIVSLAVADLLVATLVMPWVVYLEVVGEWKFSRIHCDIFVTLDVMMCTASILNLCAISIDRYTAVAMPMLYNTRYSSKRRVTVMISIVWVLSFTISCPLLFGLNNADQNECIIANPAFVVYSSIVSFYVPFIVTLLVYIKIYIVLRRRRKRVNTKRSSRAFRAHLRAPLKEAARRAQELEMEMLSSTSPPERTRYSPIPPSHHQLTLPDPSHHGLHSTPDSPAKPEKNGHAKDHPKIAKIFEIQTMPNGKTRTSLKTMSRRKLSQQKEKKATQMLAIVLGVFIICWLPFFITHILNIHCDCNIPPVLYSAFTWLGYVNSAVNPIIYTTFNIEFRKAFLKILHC

Field: example entries. Status: answers known.
INSERT INTO results (structure_notation, test_system, reported_measurement) VALUES
  ('Fc1ccc2c(c1)C(N1CCNCC1)=Nc1ccccc1S2', 'dopamine D2s receptor (Homo sapiens, UniProt P14416)', '400 nM'),
  ('c1ccc2c(c1)N=C(N1CCNCC1)c1ccccc1S2', 'dopamine D2s receptor (Homo sapiens, UniProt P14416)', '800 nM'),
  ('CN1CCN(C2=Nc3ccccc3Sc3ccc(Cl)cc32)CC1', 'dopamine D2s receptor (Homo sapiens, UniProt P14416)', '8.4 nM');

Query :: # return recorded IC50 for input `Clc1ccc2c(c1)C(N1CCNCC1)=Nc1ccccc1S2`
Result :: 35 nM

Query :: # return recorded IC50 for input `CN1CCN(C2=Nc3ccccc3Sc3ccc(F)cc32)CC1`
Result :: 170 nM

----------
target: human norepinephrine transporter (Homo sapiens, UniProt P23975); construct: expressed in transfected cells; assay: Norepinephrine uptake (fluorescent substrate, HEK293F cells); type: cell-based; conditions: HEK cells, fluorescence intensity; read-out: hNET uptake HEK FLInt CR Mean Ki
Property: pKi; scope: individual compounds
Answer as the number alone; pKi is minus log10 of concentration in mol/L.

INSERT INTO assay_data (compound, reported_measurement) VALUES
  ('Clc1ccc2c(c1)C(N1CCNCC1)=Nc1ccccc1S2', 7.39),
  ('c1ccc2c(c1)N=C(N1CCNCC1)c1ccccc1S2', 7.62),
  ('Fc1ccc2c(c1)C(N1CCNCC1)=Nc1ccccc1S2 [Example 1]', 8.02);

Now turn to the next compound.
Query :: # return recorded pKi for input `CN1CCN(C2=Nc3ccccc3Sc3ccc(F)cc32)CC1`
Result :: 7.23

----------
Measured Ki (H1 receptor (Homo sapiens, UniProt P35367))
Expressed in nM, but write only the number.

Query :: Report Ki from H1 receptor (Homo sapiens, UniProt P35367) testing of `Clc1ccc2c(c1)C(N1CCNCC1)=Nc1ccccc1S2`
Result :: 3.87

Query :: Report Ki from H1 receptor (Homo sapiens, UniProt P35367) testing of `CN1CCN(C2=Nc3ccccc3Sc3ccc(F)cc32)CC1`
Result :: 1.82

Query :: Report Ki from H1 receptor (Homo sapiens, UniProt P35367) testing of `c1ccc2c(c1)N=C(N1CCNCC1)c1ccccc1S2`
Result :: 3.33

----------
target: dopamine D2s receptor (Homo sapiens, UniProt P14416); construct: expressed in transfected cells; membranes used; test: D2 receptor in vitro functional GTPγS assay (block of dopamine-stimulated [35S]-GTPγS binding); assay type: biochemical; details: antagonist, dopamine-stimulated [35S]-GTPγS binding, D2s CHO membranes; one average result; read-out: GTPγS IC50
READOUT: IC50

Query :: # return recorded IC50 for input `Fc1ccc2c(c1)C(N1CCNCC1)=Nc1ccccc1S2`
Result :: ~0.404 µM
